# recombinant UMI read abundance (log10) per record follows
Assay: recombinant UMI read abundance after kanamycin selection (control-corrected) (log10(CPM+1)); higher = more efficient recombination; extreme values may be limits of the assay; sequences stand for … in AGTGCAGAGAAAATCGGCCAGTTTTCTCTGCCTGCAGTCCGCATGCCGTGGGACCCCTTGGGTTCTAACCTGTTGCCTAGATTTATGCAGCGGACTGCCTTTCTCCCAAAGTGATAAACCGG…AGGTTGGTTTCACT; site = the 11-nt donor;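 further: IS621 bridge recombinase in Escherichia coli cells against a fixed T5 target plasmid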
Give the figure by itself; no unit, no explanation.

Consider the worked cases shown below.
Lookup: I would be grateful if you could share the reported recombinant UMI read abundance (log10) for CCTTAGACATGGACCGGTTTTCCCGGTAATCCGTATTTGAG (site CCTTAGACTCT) .
Found: 0.0167

Lookup: What measured recombinant UMI read abundance (log10) goes with TACCTGACATGGACCGGTTTTCCCGGTAATCCGTATTTGTG (site TACCTGACTCA) ?
Found: 0.0209

Lookup: Fill blank: measured recombinant UMI read abundance (log10) of the sequence AATCCCACATGGACCGGTTTTCCCGGTAATCCGTATTTGCT (site AATCCCACTAG) is ____.
Found: 1.77

Lookup: I would be grateful if you could share the reported recombinant UMI read abundance (log10) for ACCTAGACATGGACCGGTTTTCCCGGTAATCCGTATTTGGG (site AACTAGACTCC) .
Found: 0.0442

Lookup: Can you share its recombinant UMI read abundance (log10)? I mean this sequence: GCCTGCCCATGGACCGGTTTTCCCGGTAATCCGTATTTGAT (site GCATGCCCTAT)
Found: 0.0137

Consider now this further sequence.
Lookup: Tell me the measured recombinant UMI read abundance (log10) of AAGAATACATGGACCGGTTTTCCCGGTAATCCGTATTTGCA (site GAGAATACTTG) , please.
Found: 0

---

Reported recombinant UMI read abundance (log10) values are given for each entry in this list.
Experiment: recombinant UMI read abundance after kanamycin selection (control-corrected) (log10(CPM+1)); higher = more efficient recombination; extreme values may be limits of the assay; sequences stand for … in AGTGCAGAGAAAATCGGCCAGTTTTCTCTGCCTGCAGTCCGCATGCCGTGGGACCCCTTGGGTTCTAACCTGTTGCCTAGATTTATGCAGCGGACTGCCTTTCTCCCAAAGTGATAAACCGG…AGGTTGGTTTCACT; site = the 11-nt donor
Form field (numeric): enter value without unit.

Solved entries (count: 6):
Lookup: May I ask what recombinant UMI read abundance (log10) has been recorded for ATCTGTACATGGACCGGTTTTCCCGGTAATCCGTATTTGAC (site ATCTGTACTGT) ?
Found: 1.31

Lookup: Recorded recombinant UMI read abundance (log10) of TAGCACGCATGGACCGGTTTTCCCGGTAATCCGTATTTGGG (site TAGCACGCTCC) , please.
Found: 0.0358

Lookup: Looking for the measured recombinant UMI read abundance (log10) of ACCTGGACATGGACCGGTTTTCCCGGTAATCCGTATTTGGG (site ACCTGGACTCC) , can you help?
Found: 0.0305

Lookup: May I ask what recombinant UMI read abundance (log10) has been recorded for CGTTTCGCATGGACCGGTTTTCCCGGTAATCCGTATTTGGA (site CGTTTCGCTTC) ?
Found: 0.0198

Lookup: Which recombinant UMI read abundance (log10) is reported for this sequence? CAGTCAACATGGACCGGTTTTCCCGGTAATCCGTATTTGGG (site CAGTCTACTCC)
Found: 0.0255

Lookup: Name the recorded recombinant UMI read abundance (log10) for GGGAATACATGGACCGGTTTTCCCGGTAATCCGTATTTGTT (site CGGAATCCTAA) .
Found: 0

Others:
Lookup: So what does the record say about recombinant UMI read abundance (log10) for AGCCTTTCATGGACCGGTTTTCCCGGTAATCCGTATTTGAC (site AGCCTTCCTGT) ?
Found: 0

Lookup: Look up recombinant UMI read abundance (log10) for this sequence: GCCACACCATGGACCGGTTTTCCCGGTAATCCGTATTTGTA (site GCCACGCCTTA)
Found: 0.00626

Lookup: Record request: recombinant UMI read abundance (log10) value, item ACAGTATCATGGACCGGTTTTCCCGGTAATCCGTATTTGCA (site ACTGTATCTTT)
Found: 0.00405

Lookup: Can you share its recombinant UMI read abundance (log10)? I mean this sequence: GAGGACGCATGGACCGGTTTTCCCGGTAATCCGTATTTGAG (site GAGGACGCTCT)
Found: 1.9

Lookup: // query recombinant UMI read abundance (log10) value for entry CCTCACACATGGACCGGTTTTCCCGGTAATCCGTATTTGTA (site CCCCACACTTA)
Found: 0.0116

Lookup: Which recombinant UMI read abundance (log10) is reported for this sequence? TCTAATACATGGACCGGTTTTCCCGGTAATCCGTATTTGGC (site ACTAATACTGC)
Found: 0

Lookup: Please report the recorded recombinant UMI read abundance (log10) for TCAGAGACATGGACCGGTTTTCCCGGTAATCCGTATTTGTG (site TCAGAGACTCA) .
Found: 1.03

Lookup: I would be grateful if you could share the reported recombinant UMI read abundance (log10) for GCTACTGCATGGACCGGTTTTCCCGGTAATCCGTATTTGCA (site GCTACTGCTTG) .
Found: 2.78

Lookup: Quick check: recombinant UMI read abundance (log10) of AATTTAACATGGACCGGTTTTCCCGGTAATCCGTATTTGCT (site AATGTAACTAG) ?
Found: 0.828

Lookup: What recombinant UMI read abundance (log10) value was documented for this sequence, AGGTGCCCATGGACCGGTTTTCCCGGTAATCCGTATTTGTG (site AGGTCCCCTCA) ?
Found: 0.0213

Lookup: Which measured recombinant UMI read abundance (log10) value corresponds to AGCCCAGCATGGACCGGTTTTCCCGGTAATCCGTATTTGTT (site AGCCCAGCTAA) ?
Found: 0.602

Lookup: What does the record list as recombinant UMI read abundance (log10) for GTACTCGCATGGACCGGTTTTCCCGGTAATCCGTATTTGCG (site GTATTCGCTCG) ?
Found: 0.00972

FYI, the data here is from the supplement of paper PMC11208160.
